# systemName: T1, human glucose-dependent insulinotropic polypeptide receptor (human, UniProt P48546 22-466)
# T1 sequence (looked up): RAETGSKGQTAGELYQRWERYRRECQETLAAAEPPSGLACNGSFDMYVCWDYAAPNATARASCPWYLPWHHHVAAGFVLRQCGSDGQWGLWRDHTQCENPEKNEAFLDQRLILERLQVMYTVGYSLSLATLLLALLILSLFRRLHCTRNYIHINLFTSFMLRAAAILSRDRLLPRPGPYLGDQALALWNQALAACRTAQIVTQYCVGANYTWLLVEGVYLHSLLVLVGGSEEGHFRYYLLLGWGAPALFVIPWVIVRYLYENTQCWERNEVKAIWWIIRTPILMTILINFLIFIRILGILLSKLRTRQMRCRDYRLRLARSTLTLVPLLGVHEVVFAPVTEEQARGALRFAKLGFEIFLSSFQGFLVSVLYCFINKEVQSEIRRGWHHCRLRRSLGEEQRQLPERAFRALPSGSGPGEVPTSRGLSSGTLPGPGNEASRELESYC
# experimentalProtocol: cell-based or functional assay
Starred links: 1 amine or outer side, 2 acyl side, 3 side chain; linkers in the order of their positions; H or OH if unused. Non-standard residues stand in square brackets, D forms with d. Groups on a side chain read outwards from the residue. No end group written: not given here. *: point of attachment. C20 diacid = O=C(O)CCCCCCCCCCCCCCCCCCC(=O)*; γGlu = O=C(O)[C@H](CCC(=O)[*:2])N[*:1]; αMeL = CC(C)C[C@](C)(N)C(=O)O; Iva = CC[C@](C)(N)C(=O)O; AEEA = NCCOCCOCC(=O)O; Aib = CC(C)(N)C(=O)O
// reported Activity against human GIPR (EC50 nM) for each item listed
observedProperty: Activity against human GIPR (EC50 nM)

binder	observedProperty	endpointResult
H[Aib]HGTFTSDYSI[αMeL]LEK([AEEA-AEEA-γGlu-C20 diacid])KAA[Iva]EFVEWLLAGGPSSGAPPPS-NH2 [Compound No. 0137]	Activity against human GIPR (EC50 nM)	0.001
H[Aib]HGTFTSDLSILLEK([AEEA-AEEA-γGlu-C20 diacid])KAA[Iva]EFVEWLLAGGPSSGAPPPS-NH2 [Compound No. 0136]	Activity against human GIPR (EC50 nM)	0.001
H[Aib]HGTFTSDLSI[αMeL]LEK([AEEA-AEEA-γGlu-C20 diacid])KAA[Iva]EFVEWLLAGGPSSGAPPPS-NH2 [Compound No. 0138]	Activity against human GIPR (EC50 nM)	0.0006
H[Aib]HGTFTSDYSILLEK([AEEA-AEEA-γGlu-C20 diacid])KAA[Iva]EFVEWLLAGGPSSGAPPPS-NH2 [Compound No. 0135]	Activity against human GIPR (EC50 nM)	0.001
